assay: Cmax in Sprague-Dawley rat at 2 mg/kg, iv measured after 24 hrs by LC-MS analysis; assay type: ADME, organism-based; conditions: in vivo
Measured quantity: Cmax (ng/mL)
Response body: numeric value in ng/mL, unit text excluded.

(Q) Look at this molecule and give its reported Cmax. CCOc1nc(Cl)cc2c1cnn2CCCC(=O)O
(A) 23200

====

target: UniProt:Q08499; experiment: Inhibition of PDE4D7 (unknown origin) using FAM-cyclic-3',5'-AMP as substrate at 100 nM incubated for 1 hrs by fluorescence polarization based IMAP assay relative to control
Measured quantity: inhibition (%)
Response body: numeric value in %, unit text excluded.

(Q) Look at this compound and give its reported inhibition. CCOc1nc(Cl)cc2nn(CCCO)cc12
(A) 53

(Q) Look at this compound and give its reported inhibition. CCOc1nc(Cl)cc2c1cnn2CCCCO
(A) 6

(Q) Look at this compound and give its reported inhibition. CCOc1nc(Cl)cc2c1cnn2CCCC(=O)O
(A) 72

====

These records show pIC50 for 3',5'-cyclic-AMP phosphodiesterase 4B (Homo sapiens, UniProt Q07343).
Notebook: values listed as pIC50 are -log10 of the concentration (mol/L).

CCOc1nc(Cl)cc2c1cnn2CCCC(=O)O :: 7.51

From here, focus on the item given below.
(Q) Which measured pIC50 belongs to CCOc1nc(Cl)cc2nn(CCC(=O)O)cc12 , tested on 3',5'-cyclic-AMP phosphodiesterase 4B (Homo sapiens, UniProt Q07343)?
(A) 7.45

====

biological target: 3',5'-cyclic-AMP phosphodiesterase 4D (Homo sapiens, UniProt Q08499); test: Inhibition of PDE4D7 (unknown origin) using FAM-cyclic-3',5'-AMP as substrate at 100 nM incubated for 1 hrs by fluorescence polarization based IMAP assay relative to control
Sequence (Q08499 whole entry): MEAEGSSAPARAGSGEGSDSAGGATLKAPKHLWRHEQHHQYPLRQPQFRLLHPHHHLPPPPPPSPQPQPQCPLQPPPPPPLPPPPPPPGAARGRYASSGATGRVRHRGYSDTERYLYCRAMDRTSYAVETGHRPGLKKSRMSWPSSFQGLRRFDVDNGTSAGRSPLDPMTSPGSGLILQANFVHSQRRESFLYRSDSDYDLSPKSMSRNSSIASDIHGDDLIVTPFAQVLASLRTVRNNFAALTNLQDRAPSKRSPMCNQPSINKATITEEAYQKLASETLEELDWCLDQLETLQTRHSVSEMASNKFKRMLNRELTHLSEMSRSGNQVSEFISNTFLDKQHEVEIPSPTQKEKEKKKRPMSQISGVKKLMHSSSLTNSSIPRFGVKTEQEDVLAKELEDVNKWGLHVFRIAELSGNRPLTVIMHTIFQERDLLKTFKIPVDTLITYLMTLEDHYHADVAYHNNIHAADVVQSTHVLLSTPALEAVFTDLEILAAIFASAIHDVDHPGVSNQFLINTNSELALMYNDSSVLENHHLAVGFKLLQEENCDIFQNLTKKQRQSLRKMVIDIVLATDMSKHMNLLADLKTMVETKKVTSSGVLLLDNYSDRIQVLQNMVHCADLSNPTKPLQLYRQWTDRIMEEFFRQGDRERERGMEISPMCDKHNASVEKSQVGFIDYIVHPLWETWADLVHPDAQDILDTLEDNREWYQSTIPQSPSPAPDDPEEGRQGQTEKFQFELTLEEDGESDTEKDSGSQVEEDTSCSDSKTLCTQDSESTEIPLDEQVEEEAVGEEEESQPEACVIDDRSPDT
Assign Criterion met whenever inhibition does not fall below 8%; assign Criterion not met whenever it does.

Study these solved cases before continuing.
FC(F)(F)COc1nc(Cl)cc2c1cnn2C1CCOCC1 :: Criterion met
CCOc1nc(Cl)cc2nn(CCCCO)cc12 :: Criterion not met
CCOc1nc(Cl)cc2c1cnn2CCC(=O)O :: Criterion met
CCOc1nc(Cl)cc2c1cnn2CC(=O)NC :: Criterion not met
CCOc1nc(Cl)cc2nn(C3CCOCC3)cc12 :: Criterion met

Consider the record given below.
(Q) Determine whether measured inhibition meets or exceeds 8% for CNc1nc(Cl)cc2c1cnn2C1CCCC1
(A) Criterion met

====

target: UniProt:Q08499; test: Inhibition of PDE4D7 (unknown origin) using FAM-cyclic-3',5'-AMP as substrate at 1 microM incubated for 1 hrs by fluorescence polarization based IMAP assay relative to control
Assign yes (1) whenever inhibition does not fall below 20%; assign no (0) whenever it does.

Study these solved cases before continuing.
CC(C)Oc1nc(Cl)cc2c1cnn2C1CCOCC1 :: yes (1)
COc1ccc(C2CNC(=O)C2)cc1OC1CCCC1 (configuration not stated) :: yes (1)

(Q) Determine whether measured inhibition meets or exceeds 20% for CNc1nc(Cl)cc2c1cnn2C1CCCC1
(A) yes (1)

(Q) Determine whether measured inhibition meets or exceeds 20% for CCOc1nc(C(N)=O)cc2c1cnn2C1CCOCC1
(A) no (0)

(Q) Determine whether measured inhibition meets or exceeds 20% for CNc1nc(Cl)cc2c1cnn2C1CCOCC1
(A) no (0)

(Q) Determine whether measured inhibition meets or exceeds 20% for CCCOc1nc(Cl)cc2c1cnn2C1CCOCC1
(A) no (0)

(Q) Determine whether measured inhibition meets or exceeds 20% for CCOc1nc(-c2cccs2)cc2c1cnn2C1CCOCC1
(A) yes (1)

(Q) Determine whether measured inhibition meets or exceeds 20% for FC(F)(F)COc1nc(Cl)cc2c1cnn2C1CCOCC1
(A) yes (1)

(Q) Determine whether measured inhibition meets or exceeds 20% for COc1nc(Cl)cc2c1cnn2C1CCOCC1
(A) yes (1)

(Q) Determine whether measured inhibition meets or exceeds 20% for CCOc1nc(-c2ccccc2)cc2c1cnn2C1CCOCC1
(A) yes (1)

(Q) Determine whether measured inhibition meets or exceeds 20% for Clc1cc2c(cnn2C2CCOCC2)c(OC2CC2)n1
(A) no (0)

(Q) Determine whether measured inhibition meets or exceeds 20% for CCOc1nc(Cl)cc2c1cnn2C1CCOCC1
(A) yes (1)

(Q) Determine whether measured inhibition meets or exceeds 20% for Clc1cc2c(cnn2C2CCOCC2)c(OC2CCCC2)n1
(A) no (0)

(Q) Determine whether measured inhibition meets or exceeds 20% for CCNc1nc(Cl)cc2c1cnn2C1CCCC1
(A) yes (1)

(Q) Determine whether measured inhibition meets or exceeds 20% for CCOc1nc(C#N)cc2c1cnn2C1CCOCC1
(A) yes (1)

(Q) Determine whether measured inhibition meets or exceeds 20% for CCOc1nc(C(C)=O)cc2c1cnn2C1CCOCC1
(A) no (0)

(Q) Determine whether measured inhibition meets or exceeds 20% for CCOc1nc(-c2ccsc2)cc2c1cnn2C1CCOCC1
(A) no (0)
